test system: Human papillomavirus type 1a protein E7 (residues 44-93); test: small molecules binding HPV E7 44-93 – biochemical, small-molecule microarray, residues 44-93, 635 nm fluorescence, primary screen (AID 1108); settings: fluorescence 635 nm, higher = more signal;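 further: E7 fragment applied at 1 µg/mL in TBST for 1 h at 4 C; score combines spot fluorescence with its signal to noise ratio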
Tag: fulfilled if measured composite z-score is not below 0.5, not fulfilled if it is.

Worked examples, 4 compounds total:
INSERT INTO measurements (compound, class) VALUES
  ('CN1C(=O)C2C=CC(C(O)C3CCCCC3)N(N(c3ccccc3)c3ccccc3)C2C1=O (configuration not stated)', 'not fulfilled'),
  ('CCCC=C(CCC)[C@@H](NS(=O)(=O)c1cccc2cccnc12)c1ccc(C(=O)OC)cc1', 'fulfilled'),
  ('O=C1OCCC=C[C@H]2OC34C=CCN(Cn5nnc6ccccc65)C(=O)[C@H]3N(CCCCCO)C(=O)[C@@H]4C12 (some centres not stated)', 'not fulfilled'),
  ('COc1ccc([Si](C)(C)[C@@H]2[C@@H](CCO)O[C@]3(C(=O)N(Cc4cccc(N5C(=O)COc6ccccc65)c4)c4ccccc43)[C@H]2C)cc1', 'not fulfilled');

Assess whether reported composite z-score for CC(C)=CCCC(C)=CC(O)C1C=CC2C(=O)N(c3ccccc3)C(=O)C2N1Nc1ccc([N+](=O)[O-])cc1 (configuration not stated) sits at 0.5 or higher.
fulfilled

Assess whether reported composite z-score for COCCCNC(=O)[C@@H]1c2ccccc2C(=O)N(c2ccc(C)cn2)[C@H]1c1ccc(CO)cc1 sits at 0.5 or higher.
not fulfilled

Assess whether reported composite z-score for COC(=O)C(CC#Cc1ccc2c(c1)[C@]1(C(=O)N2)[C@H](c2ccc(OCCO)cc2)N2[C@H](c3ccccc3)[C@H](c3ccccc3)OC(=O)[C@H]2[C@@H]1C(=O)O)C(=O)OC sits at 0.5 or higher.
not fulfilled

* * *

assay: probe aWnt5a binding to arrayed compounds – biochemical, biotinylated probe, 635/667 nm fluorescence, primary screen (AID 1113); conditions: small-molecule microarray, higher = more signal;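 further: score merges 667 nm fluorescence intensity with signal-to-noise per printed feature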
observable: composite z-score
Answers are plain numbers.

Worked cases, composite z-score given:
INSERT INTO measurements (compound, value_reported) VALUES
  ('COCCCNC(=O)[C@@H]1c2ccccc2C(=O)N(Cc2cc(F)cc(C(F)(F)F)c2)[C@H]1c1ccc(CO)cc1', -0.212),
  ('C[C@H]1NC(=O)C([C@@H](C)OCc2ccccc2)NC(=O)[C@@]23C(=O)N[C@@H](Cc4ccccc4)C2[C@H](C)[C@@]2(C)O[C@H]2C3/C=C/CC/C=C/CNC1=O (stereo not given in full)', 0.0919),
  ('C=C(COC)/C(=C/C[C@@H](OC(=O)c1ccncc1)c1cccc(OCCO)c1)c1cc(C(=O)OC)ccc1OC', 0.115),
  ('COC(=O)C(CC#Cc1ccc2c(c1)[C@]1(C(=O)N2)[C@H](c2ccc(O)cc2)N2[C@H](c3ccccc3)[C@H](c3ccccc3)OC(=O)[C@H]2[C@@H]1C(=O)O)C(=O)OC', -0.175);

Look at this compound and give its reported composite z-score. CC1(C)[C@@H]2CC(C(O)C3C=CC4C(=O)N(c5ccccc5)C(=O)C4N3Nc3ccccc3F)=C[C@@H]1C2 (stereo not given in full)
0.164

* * *

I'd be grateful if you could share measured composite z-score for these entries.
molecular target: Torsin-1A (Homo sapiens) (UniProt O14656); assay: torsin A mutant lysate binding on microarrays – cell lysate, small-molecule microarray, COS7 lysate, 635/667 nm fluorescence, primary screen (AID 1150); conditions: COS7 hTOR1A mutant lysate, 635 nm fluorescence, higher = more signal;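 further: score pools 667 nm emission and signal to noise measuring lysate protein binding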
Sequence (O14656 whole entry, looked up): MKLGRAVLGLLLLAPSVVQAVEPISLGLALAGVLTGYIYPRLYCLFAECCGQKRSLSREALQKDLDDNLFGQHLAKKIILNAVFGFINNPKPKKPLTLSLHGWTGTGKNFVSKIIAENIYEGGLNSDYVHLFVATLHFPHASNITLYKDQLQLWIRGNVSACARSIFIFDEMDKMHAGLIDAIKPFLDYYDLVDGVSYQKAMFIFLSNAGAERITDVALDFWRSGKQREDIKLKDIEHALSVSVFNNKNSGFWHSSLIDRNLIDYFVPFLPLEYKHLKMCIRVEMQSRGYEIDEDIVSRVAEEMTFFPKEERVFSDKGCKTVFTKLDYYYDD
One number for each entry.

Worked cases, composite z-score given:
INSERT INTO results (molecule, observable, value_reported) VALUES
  ('COc1ccc([Si](C)(C)[C@@H]2[C@@H](CC(=O)N3Cc4ccccc4C[C@H]3CO)O[C@]3(C(=O)N(Cc4cccc(N5CCCCC5=O)c4)c4ccccc43)[C@H]2C)cc1', 'composite z-score', 0.101),
  ('C=CCC(OC(C)=O)[C@@H]1[C@@H](N(Cc2cccc3ccccc23)C(=O)c2ccc(C)cc2)c2cc(OCCCO)ccc2N1C(=O)c1ccc2ccccc2c1 (stereo partly drawn)', 'composite z-score', 0.792),
  ('COCCCNC(=O)[C@@H]1c2ccccc2C(=O)N(Cc2cc(F)cc(C(F)(F)F)c2)[C@H]1c1ccc(CO)cc1', 'composite z-score', -0.0932),
  ('COc1ccc(C(=O)Nc2ccc(CN3C(=O)[C@@]4(O[C@@H](CC(=O)N5Cc6ccccc6C[C@H]5CO)[C@H]([Si](C)(C)c5ccc(OC)cc5)[C@H]4C)c4ccccc43)cc2)cc1', 'composite z-score', 0.002),
  ('COc1ccccc1CN1C(=O)c2ccccc2[C@@H](C(=O)NCC(C)C)[C@@H]1c1ccc(CO)cc1', 'composite z-score', 0.526);

// each listed molecule needs a value for composite z-score
1. O=C(NCc1ccccc1)[C@]1(Cc2ccccc2)N=C(c2ccc(OCCCO)cc2)O[C@@H]1c1ccccc1
2. COCCOC(=O)N1C(=O)[C@@]2(c3ccccc31)[C@H](c1ccc(OCCO)cc1)N1[C@H](c3ccccc3)[C@H](c3ccccc3)OC(=O)[C@H]1[C@@H]2C(=O)NC[C@H](O)c1ccccc1
3. COC(=O)[C@@]1(Cc2ccccc2N=[N+]=[N-])N=C(c2ccc(OCCCO)cc2)O[C@H]1c1ccccc1
4. Cc1ccccc1C(O)C1C=CC2C(=O)N(C)C(=O)C2N1Nc1ccc([N+](=O)[O-])cc1[N+](=O)[O-] (stereo not drawn)
5. COc1ccc(C#Cc2ccc3c(c2)[C@]2(C(=O)N3)[C@H](c3ccc(OCCO)cc3)N3[C@H](c4ccccc4)[C@H](c4ccccc4)OC(=O)[C@H]3[C@@H]2C(=O)N2CCN(c3ncccn3)CC2)cc1

[0.621, 0.662, 0.305, 0.94, 0.374]

* * *

I'd be grateful if you could share measured composite z-score for these entries.
molecular target: Follistatin (Homo sapiens) (UniProt P19883); experiment: FST protein binding to printed compounds – biochemical, small-molecule microarray, 635/667 nm fluorescence, primary screen (AID 1132); settings: 635 nm fluorescence, higher = more signal
Sequence (P19883 whole entry, looked up): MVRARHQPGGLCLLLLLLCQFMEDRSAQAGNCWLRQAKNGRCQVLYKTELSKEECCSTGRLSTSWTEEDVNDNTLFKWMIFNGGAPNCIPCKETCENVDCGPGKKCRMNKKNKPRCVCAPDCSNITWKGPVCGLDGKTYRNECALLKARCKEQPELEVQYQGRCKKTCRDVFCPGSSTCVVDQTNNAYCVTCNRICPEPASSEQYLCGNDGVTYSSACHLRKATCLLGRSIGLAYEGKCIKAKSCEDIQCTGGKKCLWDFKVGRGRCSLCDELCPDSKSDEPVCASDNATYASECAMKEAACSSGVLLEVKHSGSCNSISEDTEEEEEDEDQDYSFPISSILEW
Answers are plain numbers.

Worked cases, composite z-score given:
INSERT INTO measurements (item_smiles, measured_target, value_reported) VALUES
  ('CCOC(=O)C1=CC[C@@H](c2cccc(Br)c2)N(S(=O)(=O)c2ccc(C)cc2)[C@H]1c1ccc([N+](=O)[O-])cc1', 'Follistatin (Homo sapiens) (UniProt P19883)', 0.782),
  ('CC(C)C[C@@H]1NC(=O)[C@@H]2C[C@H](C(=O)NCc3ccc(F)cc3)[C@H](c3ccc(O)cc3)N2C1=O', 'Follistatin (Homo sapiens) (UniProt P19883)', 1.34),
  ('CCCCC=C[C@@H](NC(=O)CCc1ccccc1)c1ccccc1', 'Follistatin (Homo sapiens) (UniProt P19883)', 0.361),
  ('Cc1ccc(S[C@]2(C(=O)NCC(C)C)CC(=O)N(C3CCCCC3)[C@@H]2c2ccc(CO)cc2I)cc1', 'Follistatin (Homo sapiens) (UniProt P19883)', 0.0905);

Below: the item to evaluate.
Look at this molecule and give its reported composite z-score. CCC[C@@H]1C[C@@]1(CCC)[C@@H](NC(=O)c1ccco1)c1ccc(Cl)cc1
-0.388

* * *

experiment: Pseudomonas biofilm growth suppression – PAO1 strain, BacTiter-Glo luminescence, LB-PBS, primary screen (AID 1144); details: P. aeruginosa PAO1 biofilm, 12 h, higher = more signal
I'd be grateful if you could share measured z-score for these entries.
Numbers only.

INSERT INTO assay_data (compound, observable, value_reported) VALUES
  ('CCCC=C(CCC)[C@@H](NS(=O)(=O)c1cccc2cccnc12)c1ccc(C(=O)OC)cc1', 'z-score', -0.124),
  ('[N-]=[N+]=Nc1ccccc1[C@@H]1OC(c2ccc(OCCCO)cc2)=N[C@]1(CCS(=O)(=O)c1ccccc1)C(=O)NCc1ccccc1', 'z-score', 0.156),
  ('COC(=O)[C@@]1(Cc2ccccc2)[C@H]2c3cc(C(=O)N4CCCC4)n(Cc4ccccc4)c3C[C@H]2CN1C(=O)c1ccccc1', 'z-score', -0.402),
  ('COC(=O)[C@@]1(Cc2ccc(OC)cc2)[C@H]2c3cc(C(=O)N(C)C)n(Cc4cc(F)c(F)c(F)c4)c3C[C@H]2CN1C(=O)c1ccccc1', 'z-score', -0.00792),
  ('COCCOC(=O)N1C(=O)[C@@]2(c3ccccc31)[C@H](c1ccc(OCCO)cc1)N1[C@H](c3ccccc3)[C@H](c3ccccc3)OC(=O)[C@H]1[C@@H]2C(=O)NC[C@H](O)c1ccccc1', 'z-score', 0.109);

// each listed compound needs a value for z-score
1. O=[N+]([O-])c1ccc(C[n+]2ccc(-c3ccc(CO)cc3)cc2)o1
2. CCOC(=O)C1=CCC(c2cccc(Cl)c2)O1 (centres undefined)
3. COc1ccc(C(=O)Nc2ccc3c(c2)[C@]2(O[C@@H](CCO)[C@H]([Si](C)(C)c4ccc(OC)cc4)[C@H]2C)C(=O)N3Cc2ccccc2)cc1
4. COCCOC(=O)N1C(=O)[C@@]2(c3cc(C#CCNC(N)=O)ccc31)[C@H](C(=O)N1CCCCCCC1)[C@H]1C(=O)O[C@H](c3ccccc3)[C@H](c3ccccc3)N1[C@@H]2c1ccc(OCCO)cc1
5. C=CCC(OC(C)=O)[C@@H]1[C@@H](N(Cc2cccc3ccccc23)C(=O)c2ccc(C)cc2)c2cc(OCCCO)ccc2N1C(=O)c1ccc2ccccc2c1 (some centres undefined)
6. O=C1c2ccccc2[C@](Cc2ccccc2I)(C(=O)NCC(F)(F)F)[C@H](c2ccc(CO)cc2)N1Cc1ccccc1
7. O=C1O[C@H](c2ccccc2)[C@H](c2ccccc2)N2[C@H]1[C@@H](C(=O)NC[C@H](O)c1ccccc1)[C@]1(C(=O)Nc3ccccc31)[C@H]2c1ccccc1OCCO
8. O=C1O[C@H](c2ccccc2)[C@H](c2ccccc2)N2[C@H]1[C@@H](C(=O)N1CCCCCCC1)[C@]1(C(=O)Nc3ccccc31)[C@H]2c1ccc(O)cc1

-0.42
-1.23
-1.18
-1.52
-0.412
0.144
-0.908
0.387

Look at this compound and give its reported z-score. C#CCNS(=O)(=O)N(C)C
-0.441

Source of measurements: PubChem BioAssay
